B1: Formin-binding protein 4, residues 200 to 261; numbered along this chain, Q8N3X1 (parent)
chain: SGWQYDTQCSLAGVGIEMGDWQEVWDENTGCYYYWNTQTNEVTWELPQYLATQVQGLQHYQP

variants of: B1; assay: abundance fitness (aPCA) (normalised: wild type 0, dead -1); higher = more abundant; growth selection in yeast, the domain comes from the species named; conditions: Homo sapiens
# abundance fitness annotations
Please respond with just the number, no unit label.

# Residues, Data Value
rows = [
    ("SWWQYDTQCSLAGVGIEMGDWQEVWDENTGCYYYWNTQTNEVTWELPQYLATQVQGLQHYQP [G2W]", -0.25),
    ("SGWFYDTQCSLAGVGIEMGDWQEVWDENTGCYYYWNTQTNEVTWELPQYLATQVQGLQHYQP [Q4F]", 0.146),
    ("SGWQYDTQCSLAGVGIEMGDWQEVWDENTGCYYYWNTQTNEVTWELPQYLRTQVQGLQHYQP [A51R]", -0.087),
    ("SGWQYDRQCSLAGVGIEMGDWQEVWDENTGCYYYWNTQTNEVTWELPQYLATQVQGLQHYQP [T7R]", -0.061),
]

[ask] Quick check: abundance fitness of SGWQYDTQCSLAGVGIEMGDWQEVWDENTGCYYYWNTQTNEVTWELPQYEATQVQGLQHYQP [L50E] ?
[reply] -0.488

[ask] Entry SGWQYDTQCSLAGVGIEMGDWQEVWDENTGCYYYWNTQANEVTWELPQYLATQVQGLQHYQP [T39A] has what abundance fitness?
[reply] -0.411

[ask] Look up abundance fitness for this variant: SGWQYDTQCSLAGVGIEMGDWQEVWDENTGCYYLWNTQTNEVTWELPQYLATQVQGLQHYQP [Y34L]
[reply] -0.796

[ask] So what does the record say about abundance fitness for SGWQYDTQCSLAGVGIEMGDWQEVWDENTGCYYYWNTQTNEVTWRLPQYLATQVQGLQHYQP [E45R] ?
[reply] -0.165

[ask] What value of abundance fitness has been recorded for this entry: SGWQYDTQCSLANVGIEMGDWQEVWDENTGCYYYWNTQTNEVTWELPQYLATQVQGLQHYQP [G13N]
[reply] -0.468

[ask] Need abundance fitness of SGWNYDTQCSLAGVGIEMGDWQEVWDENTGCYYYWNTQTNEVTWELPQYLATQVQGLQHYQP [Q4N] , thanks.
[reply] 0.318
